- procedure text: Ion-pairing screening using polymyxin B API
- Format: physicochemical
- Set-up: key: +++: + details qualitative observations of the amount of solid formed; ++: + details qualitative observations of the amount of solid formed; + details qualitative observations of the amount of solid formed; − details no solids formed
- condition info: polymyxin B API mixed with IP in water

>  <compound>
CCCCCCCCCCCCc1ccc(S(=O)(=O)[O-])cc1.[Na+] [Sodium Dodecylbenzenesulfonate, sodium dodecylbenezenesulfonate]

>  <Precipitation>
+++

$$$$
>  <compound>
CCCCCCCS(=O)(=O)[O-].[Na+] [Sodium 1-Heptanesulfonate, sodium 1-heptanesulfonate]

>  <Precipitation>
+

$$$$
>  <compound>
O=S(=O)(O)c1ccccc1 [Benzenesulfonic Acid Monohydrate, benzenesulfonic acid monohydrate]

>  <Precipitation>
−

$$$$
>  <compound>
CCCCCCCCCCCCOS(=O)(=O)[O-].[Na+] [Sodium Dodecyl Sulfate, sodium dodecyl sulfate]

>  <Precipitation>
+++

$$$$
>  <compound>
CCCCCC(=O)[O-].[Na+] [Sodium Hexanoate, Sodium hexanoate]

>  <Precipitation>
−

$$$$
>  <compound>
CCCCCCCCS(=O)(=O)[O-].O.[Na+] [Sodium 1-Octanesulfonate Monohydrate, sodium 1-octanesulfonate monohydrate]

>  <Precipitation>
+++

$$$$
>  <compound>
CCCCCCCC/C=C\CCCCCCCC(=O)[O-].[Na+] [Sodium Oleate, sodium oleate]

>  <Precipitation>
+++

$$$$
>  <compound>
O=S(=O)([O-])CCS(=O)(=O)[O-].[Na+].[Na+] [Sodium 1,2-Ethanedisulfonate, sodium 1,2-ethanesulfonate]

>  <Precipitation>
−

$$$$
>  <compound>
CCCCCCCCCC(=O)[O-].[Na+] [Sodium Decanoate, sodium decanoate]

>  <Precipitation>
++

$$$$
>  <compound>
CCCCCCCCCCCCCC(=O)[O-].[Na+] [Sodium Myristate, sodium myristate]

>  <Precipitation>
++

$$$$
>  <compound>
CC1(C)C2CC[C@]1(CS(=O)(=O)O)C(=O)C2 [(1R)-(-)-10-Camphorsulfonic Acid, (1R)-(−)-10-camphorsulfonic acid]

>  <Precipitation>
−

$$$$
>  <compound>
CCCCCCCCCCS(=O)(=O)[O-].[Na+] [Sodium 1-Decanesulfonate, sodium 1-decanesulfonate]

>  <Precipitation>
+++

$$$$
>  <compound>
O=S(=O)([O-])c1ccc2ccccc2c1.[Na+] [Sodium 2-Naphthalenesulfonate, sodium 2-naphthalenesulfonate]

>  <Precipitation>
++

$$$$
